Value source: BigSolDB 2.1

details: in acetonitrile, 298.15 K
ASSAY_READOUT: solubility (mole fraction)
Form rule: numeric answer, no unit written next to it.

I have this molecule here, "O=C1CCC(=O)CC1" , and I need its recorded solubility (mole fraction).
0.391

* * *

conditions: in methyl acetate, 313.15 K
ASSAY_READOUT: solubility (mole fraction)
Enter a number only.

Recorded solubility (mole fraction) of "O=C1CCC(=O)CC1" , please.
0.515

* * *

conditions: in ethanol, 293.15 K
ASSAY_READOUT: solubility (mole fraction)
Provide a numeric answer; units are not to be included.

// solubility (mole fraction) lookup, key: "O=C1CCC(=O)CC1"
0.0777

* * *

settings: in methanol, 283.15 K
ASSAY_READOUT: solubility (mole fraction)
Give the value as a plain number.

Tell me the measured solubility (mole fraction) of "O=C1CCC(=O)CC1" , please.
0.141

* * *

details: in cyclohexane, 308.15 K
ASSAY_READOUT: solubility (mole fraction)

Which solubility (mole fraction) value is on record for "O=C1CCC(=O)CC1" ?
0.00234

* * *

conditions: in isopropanol, 293.15 K
ASSAY_READOUT: solubility (mole fraction)
Response field accepts a number only; no unit should be typed.

For the compound shown here, "O=C1CCC(=O)CC1" , give the reported solubility (mole fraction).
0.0681

* * *

conditions: in ethyl acetate, 298.15 K
ASSAY_READOUT: solubility (mole fraction)

Value lookup for solubility (mole fraction); key = "O=C1CCC(=O)CC1"
0.223

* * *

conditions: in acetonitrile, 288.15 K
ASSAY_READOUT: solubility (mole fraction)
Simply state the number, no unit and no words.

I'd like to know its solubility (mole fraction). The compound in question is "O=C1CCC(=O)CC1"
0.311

* * *

conditions: in ethyl acetate, 288.15 K
ASSAY_READOUT: solubility (mole fraction)
Please give the numeric answer without any surrounding text.

Could you tell me which solubility (mole fraction) is on file for "O=C1CCC(=O)CC1" ?
0.146

* * *

conditions: in n-propanol, 278.15 K
ASSAY_READOUT: solubility (mole fraction)

If you can, please state the reported solubility (mole fraction) value of "O=C1CCC(=O)CC1" .
0.0096

* * *

details: in cyclohexane, 293.15 K
ASSAY_READOUT: solubility (mole fraction)
// response body must contain only the number

solubility (mole fraction) for "O=C1CCC(=O)CC1" ?
0.00111

* * *

details: in ethanol, 303.15 K
ASSAY_READOUT: solubility (mole fraction)
Output spec: single numeric token, no unit.

Field request: solubility (mole fraction) | item: "O=C1CCC(=O)CC1"
0.183

* * *

details: in acetone, 293.15 K
ASSAY_READOUT: solubility (mole fraction)
Field format: numeric only.

What value of measured solubility (mole fraction) is listed for "O=C1CCC(=O)CC1" ?
0.29

* * *

conditions: in n-propanol, 298.15 K
ASSAY_READOUT: solubility (mole fraction)
Please reply with the value in numeric form only.

Return reported solubility (mole fraction); argument: "O=C1CCC(=O)CC1"
0.0638

* * *

details: in ethanol, 278.15 K
ASSAY_READOUT: solubility (mole fraction)
Lab note: record the figure alone, no unit after it.

Fill in: solubility (mole fraction) of "O=C1CCC(=O)CC1" is ___
0.0215

* * *

conditions: in n-propanol, 303.15 K
ASSAY_READOUT: solubility (mole fraction)
API note: the answer field is a bare number with no unit suffix.

Item "O=C1CCC(=O)CC1" has what recorded solubility (mole fraction)?
0.0996
